Across several studies, compounds have been characterized by their IC50 on Coagulation factor X (Homo sapiens); a selection follows.
IC50 strictly less than 20 nM = true. Otherwise false.

- compound: "O=C(NC[C@@H]1OC(=O)N2c3ccc(N4CC[C@@H](F)CC4=O)cc3OC[C@@H]12)c1ccc(Cl)s1"
  group: "false"
- compound: "Cn1c(=O)c(Cc2ccc(C(=N)N)cc2)nc2cc(C3(C(=O)O)CC3)ccc21"
  group: "false"
- compound: "CN1CCCN(c2ccc(C(=O)Nc3ccc(Cl)cc3C(=O)Nc3ccc(Cl)cn3)cc2)CC1.Cl"
  group: "true"
- compound: "O=C(Nc1ccc(Cl)cc1C(=O)Nc1ccc(Cl)cn1)c1ccc(CN2CCOCC2)cc1"
  group: "false"

Query compound follows.
**Query** Lab note: confirm whether the reported IC50 for this compound is below 20 nM, equality not counting. compound: C/C(=C(\F)C(=O)Nc1ccc(-c2ccccc2S(N)(=O)=O)cc1Br)c1ccc2ccnc(N)c2c1
**Result** true

====

Across several studies, molecules have been characterized by their pIC50 on Coagulation factor X (Homo sapiens, UniProt P00742); a selection follows.
pIC50: −log10 of the molar value.
Threshold rule: pIC50 greater than or equal to 6 is label 1; below that, label 0.

- molecule: "COc1ccc(NC(=O)c2ccc(N3CCCCC3=O)cc2)c(C(=O)Nc2ccccc2OC)c1"
  target.entity: "Coagulation factor X (Homo sapiens, UniProt P00742)"
  group: "label 0"

**Query** Textbook exercise: given the entry N=C(N)NCCC[C@@H](C=O)NC(=O)CNC(=O)C(CCCN=C(N)N)NC(=O)NCc1ccccc1 (single isomer, unassigned) , state whether its pIC50 is greater than or equal to 6.
**Result** label 1

**Query** Try this molecule next: N=C(N)N1CCc2ccc(SCC3(C(=O)O)CCN(c4ccncc4)CC3)cc2C1
**Result** label 1

**Query** Try this molecule next: O=C(C1CCN(c2ccncc2)CC1)N1CCC(CNS(=O)(=O)/C=C/c2ccc(Cl)cc2)C1 (racemic)
**Result** label 1

**Query** Try this molecule next: COc1ccc(NC(=O)c2cc(OC)ccc2NC(=O)c2ccc(N3CCOCC3=O)cc2)cc1
**Result** label 1

**Query** Try this molecule next: COc1ccc(NC(=O)c2nc3c(s2)CN(C)CC3)c(C(=O)Nc2ccc(C)cc2)c1
**Result** label 1

====

Across several studies, compounds have been characterized by their IC50 on Coagulation factor X (Homo sapiens, UniProt P00742); a selection follows.
State the answer as a number, implicitly in nM.

- compound: "COc1cc(Cl)cc(C(=O)Nc2ccc(Cl)cn2)c1NC(=O)c1ccc(C(=N)N(C)C)cc1"
  target.entity: "Coagulation factor X (Homo sapiens, UniProt P00742)"
  unit.annotation: "nM"
  numeric.readout: 0.6

**Query** What measured IC50 goes with N=C(N)c1cccc(OC(C(=O)Nc2cc(Cl)c(-n3cccc3)cc2Cl)c2ccccc2)c1 (centres undefined) ?
**Result** 93

**Query** Try this compound next: N=C(N)NCCCC(NC(=O)CN1CCN(S(=O)(=O)c2ccc(Br)cc2)CC1=O)C(=O)c1nccs1 (centres undefined)
**Result** 0.7

====

Across several studies, molecules have been characterized by their pIC50 on Coagulation factor X (Homo sapiens); a selection follows.
pIC50: −log10 of the molar value.
Threshold rule: pIC50 greater than or equal to 7 is Condition met; below that, Condition not met.

Completed entries (count: 5):
- molecule: "CN(C)C(=O)CC1CN(S(=O)(=O)c2cc3cc(Cl)ccc3[nH]2)CCN1C(=O)c1ccc(C2=NCCN2C)cc1 (stereo unspecified)"
  group: "Condition met"
- molecule: "O=C(NC[C@@H]1OC(=O)N2c3ccc(N4CCOCC4=O)cc3SC[C@@H]12)c1ccc(Cl)cc1"
  group: "Condition met"
- molecule: "CCN(C(=O)[C@@H]1Cc2ccccc2CN1C(=O)OCc1ccccc1)c1ccc(N2CCCCC2=O)cc1"
  group: "Condition not met"
- molecule: "NC(=O)c1ccc(NC(=O)c2ccc(-n3ccccc3=O)cc2)c(NC(=O)c2ccc(Cl)c(Cl)c2)c1"
  group: "Condition met"
- molecule: "Cc1ccc(NC(=O)c2cccc(O)c2NC(=O)c2ccc(N3CCCN(C)CC3)cc2)nc1.Cl"
  group: "Condition not met"

**Query** Textbook exercise: given the entry CCOC(=O)[C@]1(C)CCC[C@@]2(C)[C@@H]3CC[C@@]4(C)C[C@]3(CC[C@@H]21)C/C4=N\NC(=S)Nc1ccc(C(C)(C)C)cc1 , state whether its pIC50 is greater than or equal to 7.
**Result** Condition not met

**Query** Try this molecule next: NS(=O)(=O)c1ccccc1-c1ccc(C(=O)N2CC[C@@H](CNS(=O)(=O)/C=C/c3ccc(Cl)s3)C2)cc1
**Result** Condition not met

**Query** Try this molecule next: CCN(CC)C(=N)c1ccc(C(=O)Nc2ccccc2C(=O)Nc2ccc(Cl)cn2)cc1
**Result** Condition met

**Query** Try this molecule next: COc1ccc(C(=O)Nc2cc(C(N)=O)ccc2NC(=O)c2ccc(-n3ccccc3=O)cc2)cc1OC
**Result** Condition met

**Query** Try this molecule next: C=CCc1ccc(-c2ccc(C(=O)NCC(C)C)cc2C(=O)O)c(C(=O)Nc2ccc(C(=N)N)cc2)c1
**Result** Condition not met

**Query** Try this molecule next: CC(=N)N1CCC(Oc2ccc(OCc3nc4cc(C(=N)N)ccc4n3CC(=O)NCc3ccc(Cl)c(Cl)c3)cc2)CC1
**Result** Condition met

**Query** Try this molecule next: CC1(C)OB(c2ccc(C(NC(=N)N)OC(=O)c3cccnc3)cc2)OC1(C)C.O=C(O)C(F)(F)F (stereo unspecified)
**Result** Condition not met

**Query** Try this molecule next: Cc1cc(C(=O)Nc2ccc(-c3ccccc3S(N)(=O)=O)cc2)n(-c2cc3ccccc3cc2S(C)(=O)=O)n1
**Result** Condition met

**Query** Try this molecule next: COc1cccc(N/C(=C\[N+](=O)[O-])N[C@H]2CCCCN(CC(=O)N3CCCC3)C2=O)c1
**Result** Condition not met

**Query** Try this molecule next: N=C(N)c1ccc(CNC(=O)CN2C(=O)C(NS(=O)(=O)Cc3ccccc3)CSc3ccccc32)cc1 (single isomer, unassigned)
**Result** Condition not met
